assay method text: yeast display, Sf9 membrane polyspecificity reagent, FACS + sequencing; frameworks hold sequencing errors
observed property: polyreactivity (PSR sort gate)

Reference set (4 entries):
chain sequence: QVQLVESGGGLVQAGGSLRLSCAASGFIFWYYAMGWYRQAPGKERELVAAISSRGGSTYYADSVKGRFTISRDNAKNTVYLQMNSLKPEDTAVYYCAATGYTGYSRYYYWGQGTQVTVSS
polyreactivity (PSR sort gate): high polyreactivity
--
chain sequence: QVQLVESGGGLVQAGGSLRLSCAASGSIYSNAMGWYRPAPGKERELVAAISGSGSTTYYADSVKGRFTISRDNAKNTVYLQMNSLKPEDTAVYYCARGVYGRGRTERYYWGQGTQVIVSS
polyreactivity (PSR sort gate): high polyreactivity
--
chain sequence: QVQLVESGGGLVQAGGSLRLSCAASGFTFARYAMGWYRQAPGKERELVAAITYSGGRTYYAVSVKGRFTISRDNAKNTVYLQMNSLKPEDTAVYYCAVKHSSPGRYYYWGQGTQVTVSS
polyreactivity (PSR sort gate): high polyreactivity
--
chain sequence: QVQLVESGGGLVQAGGSLRLSCAASGSIFYFNAMGWYRQAPGKERELVASITSGGSTNYADSVKGRFTISRDNAKNTVYLQMNSLKPEDTAVYYCNARFPYLSRWLVRGLASYDYWGQGTQVTVSS
polyreactivity (PSR sort gate): low polyreactivity

Now look at this entry.
What does the record list as polyreactivity (PSR sort gate) for QVQLVESGGGLVQAGGSLRLSCAASGRTFVTYAKGWYRQAPGKERELVAAISASGGSTYYADSVKGRFTISRDNAKNTVYLQMNSLNPEDTAVYYCAKTYFLATPYGYWGQGTQVTVSS ? low polyreactivity
